# testDetails: in vitro
# cond: human
measureName: CC50

The recorded CC50 for C[C@H](CCC(=O)O)[C@H]1CC[C@H]2[C@@H]3CC[C@@H]4C[C@H](O)CC[C@]4(C)[C@H]3CC[C@]12C is > 50 µg/mL

----------
# Test system: S. flexneri ATCC 9199
# testDetails: Disc diffusion, S. flexneri
# Assay type: cell-based, Shigella flexneri
# cond: 1 mg per disc, 6 mm disc, 37 °C, 18–24 h
measureName: Inhibition zone ± SD, S. flexneri

The recorded Inhibition zone ± SD, S. flexneri for CC(CCC(=O)[O-])C1CCC2C3C(O)CC4CC(O)CCC4(C)C3CCC12C.C[N+](C)(C)CCO (stereo not drawn) [[UDCA][Z] (12)] is Inactive

The recorded Inhibition zone ± SD, S. flexneri for C[C@H](CCC(=O)[O-])[C@H]1CC[C@H]2[C@@H]3CC[C@@H]4C[C@H](O)CC[C@]4(C)[C@H]3CC[C@]12C.C[N+](C)(C)CCO [[LCA][Z] (4)] is Inactive

The recorded Inhibition zone ± SD, S. flexneri for C[C@H](CCC(=O)O)[C@H]1CC[C@H]2[C@@H]3CC[C@@H]4C[C@H](O)CC[C@]4(C)[C@H]3C[C@H](O)[C@]12C is Inactive

----------
# Tested on: Bacillus cereus TISTR035
# testDetails: Disc diffusion, B. cereus
# Format: cell-based
# cond: 1 mg per disc, 6 mm disc, 37 °C, 18–24 h
Label condition met when Inhibition zone ± SD, B. cereus >= 10 mm; otherwise condition not met.

Examples from the recorded data:
Task: Does the reported Inhibition zone ± SD, B. cereus for C[C@H](CCC(=O)[O-])[C@H]1CC[C@H]2[C@@H]3CC[C@@H]4C[C@H](O)CC[C@]4(C)[C@H]3C[C@H](O)[C@]12C.C[N+](C)(C)CCO [[DCA][Z] (8)] fall at or above the 10 mm mark?
Result: condition met

Task: Does the reported Inhibition zone ± SD, B. cereus for C[C@H](CCC(=O)O)[C@H]1CC[C@H]2[C@@H]3[C@H](O)C[C@@H]4C[C@H](O)CC[C@]4(C)[C@H]3CC[C@]12C fall at or above the 10 mm mark?
Result: condition met

Task: Does the reported Inhibition zone ± SD, B. cereus for C[C@H](CCC(=O)O)[C@H]1CC[C@H]2[C@@H]3[C@@H](O)C[C@@H]4C[C@H](O)CC[C@]4(C)[C@H]3CC[C@]12C fall at or above the 10 mm mark?
Result: condition not met

Task: Does the reported Inhibition zone ± SD, B. cereus for C[C@H](CCC(=O)O)[C@H]1CC[C@H]2[C@@H]3CC[C@@H]4C[C@H](O)CC[C@]4(C)[C@H]3C[C@H](O)[C@]12C fall at or above the 10 mm mark?
Result: condition met

// switching to the query compound
Task: Does the reported Inhibition zone ± SD, B. cereus for CC(CCC(=O)[O-])C1CCC2C3C(O)CC4CC(O)CCC4(C)C3CCC12C.C[N+](C)(C)CCO (centres unmarked) [[UDCA][Z] (12)] fall at or above the 10 mm mark?
Result: condition met

----------
# Test system: Staphylococcus aureus TISTR746
# testDetails: Disc diffusion, S. aureus
# Format: cell-based
# cond: 1 mg per disc, 6 mm disc, 37 °C, 18–24 h
Label Fulfilled when Inhibition zone ± SD, S. aureus >= 10 mm; otherwise Not fulfilled.

Examples from the recorded data:
Task: Does the reported Inhibition zone ± SD, S. aureus for C[C@H](CCC(=O)O)[C@H]1CC[C@H]2[C@@H]3CC[C@@H]4C[C@H](O)CC[C@]4(C)[C@H]3C[C@H](O)[C@]12C fall at or above the 10 mm mark?
Result: Fulfilled

Task: Does the reported Inhibition zone ± SD, S. aureus for C[C@H](CCC(=O)O)[C@H]1CC[C@H]2[C@@H]3[C@@H](O)C[C@@H]4C[C@H](O)CC[C@]4(C)[C@H]3CC[C@]12C fall at or above the 10 mm mark?
Result: Not fulfilled

Task: Does the reported Inhibition zone ± SD, S. aureus for C[C@H](CCC(=O)O)[C@H]1CC[C@H]2[C@@H]3[C@H](O)C[C@@H]4C[C@H](O)CC[C@]4(C)[C@H]3CC[C@]12C fall at or above the 10 mm mark?
Result: Not fulfilled

Next:
Task: Does the reported Inhibition zone ± SD, S. aureus for C[C@H](CCC(=O)[O-])[C@H]1CC[C@H]2[C@@H]3CC[C@@H]4C[C@H](O)CC[C@]4(C)[C@H]3C[C@H](O)[C@]12C.C[N+](C)(C)CCO [[DCA][Z] (8)] fall at or above the 10 mm mark?
Result: Fulfilled

Task: Does the reported Inhibition zone ± SD, S. aureus for CC(CCC(=O)[O-])C1CCC2C3C(O)CC4CC(O)CCC4(C)C3CCC12C.C[N+](C)(C)CCO (centres unmarked) [[UDCA][Z] (12)] fall at or above the 10 mm mark?
Result: Fulfilled
